- SUBJECT_OF_TEST: PD-1/PD-L1 (Homo sapiens (Human))
- Sequence (Q9NZQ7 19-238): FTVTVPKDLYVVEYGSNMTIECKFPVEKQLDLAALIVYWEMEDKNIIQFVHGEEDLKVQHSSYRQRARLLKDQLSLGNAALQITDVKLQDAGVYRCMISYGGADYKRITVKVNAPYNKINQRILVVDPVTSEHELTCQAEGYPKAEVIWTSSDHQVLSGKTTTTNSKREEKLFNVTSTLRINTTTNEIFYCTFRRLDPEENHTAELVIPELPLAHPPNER
- METHOD: Homogenouse Time-Resolved Fluorescence (HTRF) binding assay, PD-1/PD-L1
Record form. Attribute: pIC50. Fill in for each entry.
Answers are plain numbers, as −log10 of the molar value.

Answered cases to consult:
Cc1c(/C=C/c2cc(OCCCCCCNC(=O)CN3CCN(CC(=O)[O-])CCN(CC(=O)[O-])CCN(CC(=O)[O-])CC3)c(CN3CCCC[C@H]3C(=O)O)cc2C(F)(F)F)cccc1-c1ccccc1.[Lu+3]    9.11
Cc1ccc(CCCC(=O)NCCCC[C@H](NC(=O)CN2CCN(CC(=O)O)CCN(CC(=O)O)CCN(CC(=O)O)CC2)C(=O)NCCCCOc2cc(/C=C/c3cccc(-c4ccccc4)c3C)c(C(F)(F)F)cc2CN2CCCC[C@H]2C(=O)O)cc1    7.49
Cc1ccc(CCCC(=O)NCCCC[C@H](NC(=O)CN2CCN(CC(=O)O)CCN(CC(=O)O)CCN(CC(=O)O)CC2)C(=O)NCCOc2cc(/C=C/c3cccc(-c4ccccc4)c3C)c(C(F)(F)F)cc2CN2CCCC[C@H]2C(=O)O)cc1 [Compound 10]    6.77
Cc1c(/C=C/c2cc(OCCCNC(=O)CN3CCN(CC(=O)O)CCN(CC(=O)O)CC3)c(CN3CCCC[C@H]3C(=O)O)cc2C(F)(F)F)cccc1-c1ccccc1    9.15
Cc1cc(CN2CCCC[C@H]2C(=O)O)c(OCCOC(=O)CN2CCN(CC(=O)[O-])CCN(CC(=O)[O-])CCN(CC(=O)[O-])CC2)cc1/C=C/c1cccc(-c2ccccc2)c1C#N.[Lu+3]    8.27

Batch request: pIC50 per item, same order as input.
1. Cc1cc(CN2CCCC[C@H]2C(=O)O)c(OCCCCCN2CCN(CC(=O)O)CCN(CC(=O)O)CCN(CC(=O)O)CC2)cc1/C=C/c1cccc(-c2ccccc2)c1C [Compound 71]
2. Cc1ccc(CCCC(=O)NCCCC[C@H](NC(=O)CN2CCN(CC(=O)O)CCN(CC(=O)O)CCN(CC(=O)O)CC2)C(=O)NCCCCCCOc2cc(/C=C/c3cccc(-c4ccccc4)c3C)c(C(F)(F)F)cc2CN2CCCC[C@H]2C(=O)O)cc1 [Compound 25]
3. Cc1c(/C=C/c2cc(OCCCCNC(=O)CN3CCN(CC(=O)O)CCN(CC(=O)O)CCN(CC(=O)O)CC3)c(CN3CCCC[C@H]3C(=O)O)cc2C(F)(F)F)cccc1-c1ccccc1 [Compound 8]
4. Cc1c(/C=C/c2cc(OCC3CCN(C(=O)CN4CCN(CC(=O)O)CCN(CC(=O)O)CCN(CC(=O)O)CC4)CC3)c(CN3CCCC[C@H]3C(=O)O)cc2C(F)(F)F)cccc1-c1ccccc1 [Compound 19]

1: 7.88; 2: 7.79; 3: 9.28; 4: 9.06

Name the recorded pIC50 of the compound listed here: N#Cc1c(-c2ccccc2)ccnc1/C=C/c1cc(OCCCCCN2CCN(CC(=O)O)CCN(CC(=O)O)CC2)c(CN2CCCC[C@H]2C(=O)O)cc1C(F)(F)F
8.32
